Provenance of the data: PubChem BioAssay (NCI)

Test: NCI Yeast Anticancer Drug Screen. Data for the mlh1 rad18 strain (AID 175)
Details: S. cerevisiae mlh1 rad18 strain growth inhibition; at 50.0 µM; stronger effect = higher value
This is part of a sample that, as a whole, favours compounds with a hit. Of some 79,000 tested, about 15% had one in any assay.
Reported values of growth inhibition for individual entries
Could you give me the number in %? Just the number is fine.

CCCCC1(CC)COC(CCC)OC1 (stereo unspecified)    11.5
CNC(=S)NC(C)(C)C    -20

Task: Form field: reported growth inhibition of COc1ccccc1N=Nc1c(O)ccc2cc(S(=O)(=O)O)ccc12
Result: -13.2

----------
Measured growth inhibition, listed per entry for reference.
Test: NCI Yeast Anticancer Drug Screen. Data for the mlh1 rad18 strain (AID 175)
Settings: S. cerevisiae mlh1 rad18 strain growth inhibition; at 50.0 µM; stronger effect = higher value
Protocol: Growth inhibition of yeast strains with defined genetic alterations is measured as a screen for potential anti-cancer activity. Selected strains with alterations in DNA damage repair or cell cycle control were exposed to compounds and growth inhibition was measured relative to vehicle treated controls. The strain used in this assay is mlh1 rad18
About 79,000 compounds went through this panel and 15% of them were active in at least one assay; those are over-represented in the sample as a whole.
Value expressed in %; do not type the unit.

# example entries with known answers
Cc1cc(=O)cc(C)n1-c1ccccc1    19.2
S=C1NCc2cncnc2N1    18.8
O=C1Cc2cc(O)ccc2O1    -8.75
CC1CCC(C(=O)O)N1 (stereo not given)    6.65
C=CC[N+](C)(C)C    7.4
CN(C)/N=C/c1ccccc1O    2.9
CCC(C#N)(CC)c1ccccc1    36.3
CCOC(=O)C/C(C)=N\O    2.4

Continue with the molecule presented below.
Task: Entry CN1C(=O)CN2CCc3ccccc3C2c2cc(Cl)ccc21 (stereo not given) : reported growth inhibition = ?
Result: 42.1
